pIC50: −log10 of the molar value.
oxidase-type xanthine oxidoreductase (from buttermilk) (Bos taurus) measurements of pIC50, listed per entry.
Sequence (P80457 whole entry): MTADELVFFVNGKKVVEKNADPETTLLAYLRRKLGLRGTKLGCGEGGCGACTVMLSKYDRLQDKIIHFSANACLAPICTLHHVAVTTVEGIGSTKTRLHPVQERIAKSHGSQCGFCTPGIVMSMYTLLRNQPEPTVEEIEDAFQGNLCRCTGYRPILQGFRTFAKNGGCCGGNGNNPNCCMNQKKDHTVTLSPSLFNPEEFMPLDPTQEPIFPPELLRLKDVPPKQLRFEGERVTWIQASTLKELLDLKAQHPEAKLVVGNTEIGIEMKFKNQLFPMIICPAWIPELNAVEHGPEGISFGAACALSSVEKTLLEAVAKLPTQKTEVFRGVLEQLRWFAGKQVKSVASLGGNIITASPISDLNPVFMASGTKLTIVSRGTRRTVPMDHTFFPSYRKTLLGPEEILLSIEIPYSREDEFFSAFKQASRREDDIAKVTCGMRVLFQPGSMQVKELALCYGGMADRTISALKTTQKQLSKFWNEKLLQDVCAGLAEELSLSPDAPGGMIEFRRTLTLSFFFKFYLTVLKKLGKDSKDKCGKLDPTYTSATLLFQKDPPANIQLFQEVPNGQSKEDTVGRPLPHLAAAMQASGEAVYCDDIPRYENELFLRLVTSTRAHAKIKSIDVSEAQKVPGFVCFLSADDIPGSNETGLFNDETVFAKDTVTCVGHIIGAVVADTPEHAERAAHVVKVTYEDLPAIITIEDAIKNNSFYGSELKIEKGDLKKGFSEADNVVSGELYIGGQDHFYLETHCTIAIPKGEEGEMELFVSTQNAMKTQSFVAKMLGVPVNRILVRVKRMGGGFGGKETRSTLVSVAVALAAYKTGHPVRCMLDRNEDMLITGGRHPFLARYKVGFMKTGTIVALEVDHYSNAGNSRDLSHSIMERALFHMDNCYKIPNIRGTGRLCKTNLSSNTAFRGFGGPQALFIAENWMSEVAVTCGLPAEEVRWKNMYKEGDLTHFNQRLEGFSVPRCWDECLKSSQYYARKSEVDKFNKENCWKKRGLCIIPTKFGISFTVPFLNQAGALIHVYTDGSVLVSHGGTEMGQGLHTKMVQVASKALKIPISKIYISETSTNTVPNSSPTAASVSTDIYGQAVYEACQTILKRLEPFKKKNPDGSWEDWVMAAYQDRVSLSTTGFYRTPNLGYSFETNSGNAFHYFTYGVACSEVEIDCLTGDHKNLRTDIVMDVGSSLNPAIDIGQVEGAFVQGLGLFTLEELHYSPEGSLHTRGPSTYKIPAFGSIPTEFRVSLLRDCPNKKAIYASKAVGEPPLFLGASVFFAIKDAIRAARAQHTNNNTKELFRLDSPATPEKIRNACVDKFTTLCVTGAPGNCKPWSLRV

Cc1nc(-c2ccc(Oc3ccccc3)c(-n3cnnn3)c2)sc1C(=O)O ... 8.30 to 9.00

Prompt: Which pIC50 is reported with oxidase-type xanthine oxidoreductase (from buttermilk) (Bos taurus) for this entry: Cc1cccc(Oc2ccc(-c3nc(C)c(C(=O)O)s3)cc2-n2cnnn2)c1 ?
Completion: 8.30 to 9.00

Prompt: Which pIC50 is reported with oxidase-type xanthine oxidoreductase (from buttermilk) (Bos taurus) for this entry: Cc1nc(-c2ccc(Oc3c(F)cccc3F)c(-n3cnnn3)c2)sc1C(=O)O ?
Completion: 8.30 to 9.00

Prompt: Which pIC50 is reported with oxidase-type xanthine oxidoreductase (from buttermilk) (Bos taurus) for this entry: Cc1nc(-c2ccc(OCC(C)C)c(-n3nnnc3C)c2)sc1C(=O)O ?
Completion: 8.00 to 8.30

Prompt: Which pIC50 is reported with oxidase-type xanthine oxidoreductase (from buttermilk) (Bos taurus) for this entry: Cc1nc(-c2ccc(Oc3ccccc3)c(-n3ccnc3)c2)sc1C(=O)O ?
Completion: < 8.00
